biological target: Proteasome subunit beta (Trypanosoma cruzi); experiment: Trypanosoma cruzi proteasome chymotrypsin-like activity (TcProtChymo) assay.; format: functional; design: scale not given: in the data most compounds retested in dose-response had high values; settings: 9.37 µM
Below: a set of entries, each annotated with reported Percent Effect.
Report the value in % with no unit label.

Previously resolved entries follow.
CC(=O)N1CCCCC1c1nc2c(c(N3CCCCC3)n1)CN(C)CC2 (centres undefined) : 23.4
COCCn1cc2c(n1)C(CNCc1ccco1)OCC2 (centres undefined) : 18
O=C1NCCN1C1CCN(Cc2nc(-c3ccoc3)no2)CC1 : 4.56
Cc1cc(C2CCCN(C(=O)CN3CCN(C)CC3)C2)n[nH]1 (centres undefined) : 16.9
CCCNC(=O)c1cnc(N(C)C)nc1COC : 8.69
CCCOCC(=O)NC1CCc2nc(C)cn2C1 (centres undefined) : 17.2
Cc1cc(CN2CCC(CNC(=O)c3ccc(O)c(Cl)c3)C2)[nH]n1 (centres undefined) : 5.24
Fc1cccc(Oc2ccc(CNCC3CNc4ccnn4C3)cn2)c1 (centres undefined) : 8.28
O=S(=O)(N1CCCCC1)N1CCc2nc(C3CCNCC3)ncc2C1 : 12.8
Cc1ccc2cnn(CCC(=O)Nc3c(C)nn(C)c3C)c2c1 : 5.16

Output reported Percent Effect of the molecule O=C(c1ccc(F)cc1)N1C[C@H]2CCC[C@@]2(COCc2ccccn2)C1 on Proteasome subunit beta (Trypanosoma cruzi). 22
